System: HCT-15
Details: read-out: LC50; HCT-15 (Colon Cancer)
OBSERVATION_TYPE: CC50

**Q:** Which CC50 value is on record for COc1cc(Nc2ncc(F)c(Nc3ccc4c(n3)NC(=O)C(C)(C)O4)n2)cc(OC)c1OC.O=S(=O)(O)c1ccccc1 [Compound 1 (besylate salt)] ?
**A:** > 100 µM

----------
Test system: HL-60(TB)
Conditions: read-out: LC50; HL-60(TB) (Leukemia)
OBSERVATION_TYPE: CC50

**Q:** Value lookup for CC50; key = COc1cc(Nc2ncc(F)c(Nc3ccc4c(n3)NC(=O)C(C)(C)O4)n2)cc(OC)c1OC.O=S(=O)(O)c1ccccc1 [Compound 1 (besylate salt)]
**A:** > 100 µM

----------
Tested on: SNB-75
Settings: read-out: LC50; SNB-75 (CNS Cancer)
OBSERVATION_TYPE: CC50

**Q:** State the recorded CC50 for this entry: COc1cc(Nc2ncc(F)c(Nc3ccc4c(n3)NC(=O)C(C)(C)O4)n2)cc(OC)c1OC.O=S(=O)(O)c1ccccc1 [Compound 1 (besylate salt)]
**A:** > 100 µM

----------
System: DU-145
Details: read-out: LC50; DU-145 (Prostate Cancer)
OBSERVATION_TYPE: CC50

**Q:** Need CC50 of COc1cc(Nc2ncc(F)c(Nc3ccc4c(n3)NC(=O)C(C)(C)O4)n2)cc(OC)c1OC.O=S(=O)(O)c1ccccc1 [Compound 1 (besylate salt)] , thanks.
**A:** > 100 µM

----------
Test system: OVCAR-8
Conditions: read-out: LC50; OVCAR-8 (Ovarian Cancer)
OBSERVATION_TYPE: CC50

**Q:** Which CC50 value is on record for COc1cc(Nc2ncc(F)c(Nc3ccc4c(n3)NC(=O)C(C)(C)O4)n2)cc(OC)c1OC.O=S(=O)(O)c1ccccc1 [Compound 1 (besylate salt)] ?
**A:** > 100 µM

----------
System: 786-0
Conditions: read-out: LC50; 786-0 (Renal Cancer)
OBSERVATION_TYPE: CC50

**Q:** Could you tell me which CC50 is on file for COc1cc(Nc2ncc(F)c(Nc3ccc4c(n3)NC(=O)C(C)(C)O4)n2)cc(OC)c1OC.O=S(=O)(O)c1ccccc1 [Compound 1 (besylate salt)] ?
**A:** > 100 µM

----------
Tested on: MDA-MB-435
Conditions: read-out: LC50; MDA-MB-435 (Breast Cancer)
OBSERVATION_TYPE: CC50

**Q:** I am curious: what CC50 value has been reported for COc1cc(Nc2ncc(F)c(Nc3ccc4c(n3)NC(=O)C(C)(C)O4)n2)cc(OC)c1OC.O=S(=O)(O)c1ccccc1 [Compound 1 (besylate salt)] ?
**A:** > 100 µM

----------
Tested on: OVCAR-5
Conditions: read-out: LC50; OVCAR-5 (Ovarian Cancer)
OBSERVATION_TYPE: CC50

**Q:** Which CC50 reading was recorded for the compound COc1cc(Nc2ncc(F)c(Nc3ccc4c(n3)NC(=O)C(C)(C)O4)n2)cc(OC)c1OC.O=S(=O)(O)c1ccccc1 [Compound 1 (besylate salt)] ?
**A:** > 100 µM

----------
System: A498
Conditions: read-out: LC50; A498 (Renal Cancer)
OBSERVATION_TYPE: CC50

**Q:** Dear colleague, I am looking for the recorded CC50 of the following molecule: COc1cc(Nc2ncc(F)c(Nc3ccc4c(n3)NC(=O)C(C)(C)O4)n2)cc(OC)c1OC.O=S(=O)(O)c1ccccc1 [Compound 1 (besylate salt)]
**A:** > 100 µM

----------
System: MALME-3M
Details: read-out: LC50; MALME-3M (Melanoma)
OBSERVATION_TYPE: CC50

**Q:** Which value of CC50 has been reported for COc1cc(Nc2ncc(F)c(Nc3ccc4c(n3)NC(=O)C(C)(C)O4)n2)cc(OC)c1OC.O=S(=O)(O)c1ccccc1 [Compound 1 (besylate salt)] in the records?
**A:** > 100 µM

----------
Tested on: SK-OV-3
Conditions: read-out: LC50; SK-OV-3 (Ovarian Cancer)
OBSERVATION_TYPE: CC50

**Q:** Which CC50 value belongs to COc1cc(Nc2ncc(F)c(Nc3ccc4c(n3)NC(=O)C(C)(C)O4)n2)cc(OC)c1OC.O=S(=O)(O)c1ccccc1 [Compound 1 (besylate salt)] ?
**A:** > 100 µM

----------
Tested on: HCC-2998
Details: read-out: LC50; HCC-2998 (Colon Cancer)
OBSERVATION_TYPE: CC50

**Q:** I would be grateful if you could share the reported CC50 for COc1cc(Nc2ncc(F)c(Nc3ccc4c(n3)NC(=O)C(C)(C)O4)n2)cc(OC)c1OC.O=S(=O)(O)c1ccccc1 [Compound 1 (besylate salt)] .
**A:** > 100 µM

----------
System: ACHN
Conditions: read-out: LC50; ACHN (Renal Cancer)
OBSERVATION_TYPE: CC50

**Q:** Query the reported CC50 for ACHN; item: COc1cc(Nc2ncc(F)c(Nc3ccc4c(n3)NC(=O)C(C)(C)O4)n2)cc(OC)c1OC.O=S(=O)(O)c1ccccc1 [Compound 1 (besylate salt)]
**A:** > 100 µM

----------
Test system: RXF 393
Details: read-out: LC50; RXF 393 (Renal Cancer)
OBSERVATION_TYPE: CC50

**Q:** Quick one: CC50 for COc1cc(Nc2ncc(F)c(Nc3ccc4c(n3)NC(=O)C(C)(C)O4)n2)cc(OC)c1OC.O=S(=O)(O)c1ccccc1 [Compound 1 (besylate salt)] ?
**A:** > 100 µM

----------
System: NCI/ADR-RES
Conditions: read-out: LC50; NCI/ADR-RES (Breast Cancer)
OBSERVATION_TYPE: CC50

**Q:** Form field: reported CC50 of COc1cc(Nc2ncc(F)c(Nc3ccc4c(n3)NC(=O)C(C)(C)O4)n2)cc(OC)c1OC.O=S(=O)(O)c1ccccc1 [Compound 1 (besylate salt)]
**A:** > 100 µM

----------
Tested on: MCF7
Details: read-out: LC50; MCF7 (Breast Cancer)
OBSERVATION_TYPE: CC50

**Q:** So what does the record say about CC50 for COc1cc(Nc2ncc(F)c(Nc3ccc4c(n3)NC(=O)C(C)(C)O4)n2)cc(OC)c1OC.O=S(=O)(O)c1ccccc1 [Compound 1 (besylate salt)] ?
**A:** > 100 µM

----------
System: T-47D
Conditions: read-out: LC50; T-47D (Breast Cancer)
OBSERVATION_TYPE: CC50

**Q:** Quick one: CC50 of COc1cc(Nc2ncc(F)c(Nc3ccc4c(n3)NC(=O)C(C)(C)O4)n2)cc(OC)c1OC.O=S(=O)(O)c1ccccc1 [Compound 1 (besylate salt)] ?
**A:** > 100 µM

----------
System: MDA-MB-231/ATCC
Conditions: read-out: LC50; MDA-MB-231/ATCC (Breast Cancer)
OBSERVATION_TYPE: CC50

**Q:** Lab note: need CC50 with MDA-MB-231/ATCC for entry COc1cc(Nc2ncc(F)c(Nc3ccc4c(n3)NC(=O)C(C)(C)O4)n2)cc(OC)c1OC.O=S(=O)(O)c1ccccc1 [Compound 1 (besylate salt)] , please look it up.
**A:** > 100 µM

----------
System: COLO 205
Conditions: read-out: LC50; COLO 205 (Colon Cancer)
OBSERVATION_TYPE: CC50

**Q:** Form field: reported CC50 of COc1cc(Nc2ncc(F)c(Nc3ccc4c(n3)NC(=O)C(C)(C)O4)n2)cc(OC)c1OC.O=S(=O)(O)c1ccccc1 [Compound 1 (besylate salt)]
**A:** > 100 µM

----------
Tested on: SW-620
Settings: read-out: LC50; SW-620 (Colon Cancer)
OBSERVATION_TYPE: CC50

**Q:** Any idea what CC50 came out for COc1cc(Nc2ncc(F)c(Nc3ccc4c(n3)NC(=O)C(C)(C)O4)n2)cc(OC)c1OC.O=S(=O)(O)c1ccccc1 [Compound 1 (besylate salt)] on SW-620?
**A:** > 100 µM

----------
System: K-562
Conditions: read-out: LC50; K-562 (Leukemia)
OBSERVATION_TYPE: CC50

**Q:** # CC50 lookup, item COc1cc(Nc2ncc(F)c(Nc3ccc4c(n3)NC(=O)C(C)(C)O4)n2)cc(OC)c1OC.O=S(=O)(O)c1ccccc1 [Compound 1 (besylate salt)]
**A:** > 100 µM

Taken from patent US20090012045A1.
